- assayTarget: recombinant human cIAP1-BIR3 protein (Homo sapiens, UniProt Q13490)
- Construct: recombinant human cIAP1-BIR3 protein; purchased Reaction biology APT-11-370
- Sequence (Q13490 253-363 limits assumed): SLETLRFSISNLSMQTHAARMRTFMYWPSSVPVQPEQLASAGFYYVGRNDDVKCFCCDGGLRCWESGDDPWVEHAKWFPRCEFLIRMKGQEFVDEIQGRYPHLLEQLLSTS
- assayNotes: Recombinant human c-IAP1-BIR3 biochemical assay (HTRF, peptide displacement)
- measurementParameters: 1.2 nM cIAP1-BIR3, 3 nM AbuRPF-K(5-Fam)-NH2 peptide, read-out: Protein binding IC50 (nM) c-IAP1
readoutKind: IC50
Give the figure together with its unit, number first.

compound	assayTarget	IC50
C[C@@H]1CN(CC(=O)N2c3cc(Cc4ccc(F)cc4)cnc3OC[C@@H]2C2CC2)[C@@H](CN2CCOC[C@H]2C)CN1	recombinant human cIAP1-BIR3 protein (Homo sapiens, UniProt Q13490)	0.48 nM
C[C@@H]1CN(CC(=O)N2c3cc(Cc4ccc(F)cc4)cnc3OC[C@@H]2c2ccccc2)[C@@H](CN2[C@H](C)COC[C@H]2C)CN1	recombinant human cIAP1-BIR3 protein (Homo sapiens, UniProt Q13490)	0.36 nM

Req: Requested field: IC50. Item: C[C@@H]1CN(CC(=O)N2c3cc(Cc4ccc(F)cc4)c(CO)nc3OC[C@@H]2C)[C@@H](CN2CCOC[C@H]2C(F)(F)F)CN1 [Compound 91A]
Resp: 0.72 nM

Req: // query: CC1COc2ncc(Cc3ccc(F)cc3)cc2N1C(=O)CN1C[C@@H](C)NC[C@@H]1CN1CCOC[C@H]1C (stereo partly drawn)
Resp: 0.82 nM

Req: // query: C[C@@H]1CN(CC(=O)N2c3cc(Cc4ccc(F)cc4)c(CO)nc3OC[C@@H]2C)[C@@H](CN2CCOC[C@H]2C(F)F)CN1
Resp: 1.3 nM
